Consider the following molecules; for each one, report its pIC50.
- target.desc: Steroid 17-alpha-hydroxylase/17,20 lyase (Homo sapiens)
- Sequence (P05093 whole entry): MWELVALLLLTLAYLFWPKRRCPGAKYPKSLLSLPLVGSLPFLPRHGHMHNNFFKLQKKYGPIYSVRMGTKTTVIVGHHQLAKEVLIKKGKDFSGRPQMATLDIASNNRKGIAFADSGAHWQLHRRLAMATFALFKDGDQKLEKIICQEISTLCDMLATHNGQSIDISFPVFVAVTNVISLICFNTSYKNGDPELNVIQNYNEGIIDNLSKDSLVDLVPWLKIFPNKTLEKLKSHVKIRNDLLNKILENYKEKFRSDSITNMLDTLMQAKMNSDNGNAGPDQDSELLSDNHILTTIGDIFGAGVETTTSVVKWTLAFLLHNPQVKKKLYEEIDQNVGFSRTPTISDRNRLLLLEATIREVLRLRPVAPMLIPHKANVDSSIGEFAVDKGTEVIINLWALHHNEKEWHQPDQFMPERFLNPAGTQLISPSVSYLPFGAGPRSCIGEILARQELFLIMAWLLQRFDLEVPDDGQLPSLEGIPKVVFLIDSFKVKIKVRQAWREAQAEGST
In simple prose, pIC50 is minus the logarithm base ten of a concentration in moles per litre.

Give reported pIC50 value for C[C@]12CC[C@H](O)C[C@@H]1CC[C@@H]1[C@@H]2CC[C@]2(C)[C@@H](c3cccnc3)CC[C@@H]12
7.13

# return recorded pIC50 for entry C[C@]12CCC(=O)C=C1CCC1C2CC[C@]2(C)C(c3cccnc3)=CCC12 (some centres undefined)
8.52

Dear colleague, please send me the reported pIC50 for C[C@]12CC[C@H](O)C[C@@H]1CC[C@@H]1[C@@H]2CC[C@@]2(C)[C@H]1C[C@H]1O[C@]12c1cccnc1 when you can.
6.59

Query pIC50 for C[C@]12CC[C@H](O)C[C@@H]1CC[C@@H]1[C@@H]2CC[C@]2(C)C(c3cccnc3)CC[C@@H]12 (some centres undefined)
8.30

Data provenance: ChEMBL document CHEMBL1131444
